Where do the numbers come from? From patent US20080058636A1.

Molecular target: rat collagen (acid soluble, type I, rat tail, Upstate 08-115) (rat) (UniProt P02454)
Sequence (P02454 152-1207, chain 1 of 2): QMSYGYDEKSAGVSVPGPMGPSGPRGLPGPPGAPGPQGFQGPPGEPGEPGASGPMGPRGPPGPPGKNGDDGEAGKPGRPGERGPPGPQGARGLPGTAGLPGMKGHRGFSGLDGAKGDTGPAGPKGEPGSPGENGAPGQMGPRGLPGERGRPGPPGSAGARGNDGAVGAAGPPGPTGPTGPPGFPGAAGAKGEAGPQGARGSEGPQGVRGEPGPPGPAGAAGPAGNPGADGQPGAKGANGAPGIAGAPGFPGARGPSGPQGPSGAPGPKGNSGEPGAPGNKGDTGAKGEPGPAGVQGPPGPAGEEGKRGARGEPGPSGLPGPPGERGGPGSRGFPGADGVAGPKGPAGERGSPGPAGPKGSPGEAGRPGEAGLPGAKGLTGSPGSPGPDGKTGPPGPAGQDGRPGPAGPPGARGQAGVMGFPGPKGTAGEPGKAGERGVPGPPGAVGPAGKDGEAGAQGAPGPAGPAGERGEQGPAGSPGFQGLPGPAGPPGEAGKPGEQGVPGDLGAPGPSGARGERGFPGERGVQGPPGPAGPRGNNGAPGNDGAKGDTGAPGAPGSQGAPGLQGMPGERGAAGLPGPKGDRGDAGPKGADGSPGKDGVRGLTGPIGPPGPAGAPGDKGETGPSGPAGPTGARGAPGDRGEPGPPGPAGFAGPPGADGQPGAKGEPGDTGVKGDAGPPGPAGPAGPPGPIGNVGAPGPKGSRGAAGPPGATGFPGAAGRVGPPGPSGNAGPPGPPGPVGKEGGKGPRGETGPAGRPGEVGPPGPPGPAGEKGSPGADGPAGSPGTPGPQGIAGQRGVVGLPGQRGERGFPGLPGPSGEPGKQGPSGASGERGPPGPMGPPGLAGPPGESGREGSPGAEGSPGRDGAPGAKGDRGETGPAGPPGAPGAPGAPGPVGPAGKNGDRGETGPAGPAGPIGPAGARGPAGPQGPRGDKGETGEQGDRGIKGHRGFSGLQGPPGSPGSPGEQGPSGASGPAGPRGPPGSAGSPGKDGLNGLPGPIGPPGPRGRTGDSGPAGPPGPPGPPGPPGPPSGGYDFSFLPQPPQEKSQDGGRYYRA
Sequence (P02466 86-1125, chain 2 of 2, further chain): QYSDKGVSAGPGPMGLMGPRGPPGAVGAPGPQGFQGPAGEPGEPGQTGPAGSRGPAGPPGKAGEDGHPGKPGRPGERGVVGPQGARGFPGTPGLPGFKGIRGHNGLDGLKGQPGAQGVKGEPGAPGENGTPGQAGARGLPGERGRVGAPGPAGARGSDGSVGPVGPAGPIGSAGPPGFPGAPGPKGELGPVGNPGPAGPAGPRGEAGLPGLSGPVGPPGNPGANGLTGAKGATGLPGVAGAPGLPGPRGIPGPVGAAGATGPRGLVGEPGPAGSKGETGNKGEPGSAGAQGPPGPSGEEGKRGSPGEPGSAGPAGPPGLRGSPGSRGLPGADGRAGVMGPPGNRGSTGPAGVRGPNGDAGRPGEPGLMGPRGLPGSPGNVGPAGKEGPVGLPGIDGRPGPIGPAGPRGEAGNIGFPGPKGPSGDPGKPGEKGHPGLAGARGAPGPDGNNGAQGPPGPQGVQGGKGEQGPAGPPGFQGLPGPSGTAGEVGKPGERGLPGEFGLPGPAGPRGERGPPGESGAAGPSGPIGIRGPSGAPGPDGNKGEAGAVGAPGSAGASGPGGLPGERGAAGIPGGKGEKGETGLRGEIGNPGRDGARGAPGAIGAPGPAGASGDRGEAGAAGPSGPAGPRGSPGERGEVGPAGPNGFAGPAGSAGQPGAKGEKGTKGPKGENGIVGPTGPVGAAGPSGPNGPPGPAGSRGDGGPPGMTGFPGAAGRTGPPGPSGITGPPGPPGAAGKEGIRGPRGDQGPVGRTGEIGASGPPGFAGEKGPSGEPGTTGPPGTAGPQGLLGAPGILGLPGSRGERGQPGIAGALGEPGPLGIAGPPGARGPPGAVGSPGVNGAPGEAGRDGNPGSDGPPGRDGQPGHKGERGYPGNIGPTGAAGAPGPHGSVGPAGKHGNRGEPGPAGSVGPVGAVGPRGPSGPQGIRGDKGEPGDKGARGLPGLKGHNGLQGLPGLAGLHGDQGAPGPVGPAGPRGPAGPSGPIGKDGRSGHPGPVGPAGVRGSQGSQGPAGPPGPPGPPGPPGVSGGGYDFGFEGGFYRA
Test: dried collagen assay
Bridge positions count the residues as written; N and C are the ends. Square brackets hold non-standard residues; d marks the D form. Ends that are not written are not given here.
Value Kind: % Collagen Binding (%)

(P) G[dQ]WTCSGDEYTWHCNYE (disulfide 5-14 (inferred)) [SEQ ID NO: 164]
(Q) GQWTCSGDEYT[dW]HCNYE (disulfide 5-14 (inferred); not fully specified (C-terminus); printed as Q W T C S G D E Y T w H C N Y E) [SEQ ID NO: 173]
(R) GQWTCSGDEYTWHC[dN]YE (disulfide 5-14 (inferred); not fully specified (C-terminus); printed as Q W T C S G D E Y T W H C n Y E) [SEQ ID NO: 176]
(S) GQWTCSGDEYTWHCNY[dE] (disulfide 5-14 (inferred); not fully specified (C-terminus); printed as Q W T C S G D E Y T W H C N Y e) [SEQ ID NO: 178]
(T) YHACYQAGCWAW (disulfide 4-9; not fully specified) [SEQ ID NO: 137]
Task item: # rank_down: sort by % Collagen Binding, max first Ranked list of labels, please, in the requested order.
Reply: S, P, T, Q, R

(a) GQW[dT]CSGDEYTWHCNYE (disulfide 5-14 (inferred)) [SEQ ID NO: 166]
(b) GQWTC[dS]GDEYTWHCNYE (disulfide 5-14 (inferred)) [SEQ ID NO: 168]
Task item: Of a and b , which carries the smaller reported % Collagen Binding figure? Returns: label corresponding to the selected item.
Reply: b

(A) GQWTCSGD[dE]YTWHCNYE (disulfide 5-14 (inferred)) [SEQ ID NO: 170]
(B) DWTCSLDEYTWHCNYE [SEQ ID NO: 183]
(C) GQWTCSGDEYTWH[dC]NYE (disulfide 5-14 (inferred); not fully specified (C-terminus); printed as Q W T C S G D E Y T W H c N Y E) [SEQ ID NO: 175]
(D) GQWTCSADEYTWHCNYE (disulfide 5-14; not fully specified) [SEQ ID NO: 142]
Task item: I would appreciate it if you could sort these 4 binders by % Collagen Binding, starting from the smallest number. Ranked list of labels, please, in the requested order.
Reply: C, D, A, B
(C: 2%, D: 6%, A: 35%, B: 63%)

(A) DWTCSADEYTWHCNYE [SEQ ID NO: 179]
(B) GQWTCSGDEY[dT]WHCNYE (disulfide 5-14 (inferred); not fully specified (C-terminus); printed as Q W T C S G D E Y t W H C N Y E) [SEQ ID NO: 172]
Task item: Of A and B , which carries the smaller reported % Collagen Binding figure? Returns: label corresponding to the selected item.
Reply: B

(A) DWTCSSDEYTWHCNYE [SEQ ID NO: 180]
(B) GQ[dW]TCSGDEYTWHCNYE (disulfide 5-14 (inferred)) [SEQ ID NO: 165]
Task item: Of A and B , which one carries the higher reported % Collagen Binding? Returns: label corresponding to the selected item.
Reply: A
(A: 72%, B: 4%)
